B1: Far upstream element-binding protein 2, residues 142 to 214; numbered along this chain, Q92945 (parent)
chain: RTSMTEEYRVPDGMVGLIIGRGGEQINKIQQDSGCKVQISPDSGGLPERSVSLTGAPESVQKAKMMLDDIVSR

# Variants of: B1
# ASSAY EXPLANATION: abundance fitness (aPCA) (normalised: wild type 0, dead -1); higher = more abundant; growth selection in yeast, the domain comes from the species named
# RUN CONDITIONS: Homo sapiens
MEASURED ENDPOINT: abundance fitness
The response must contain the number and no unit.

# query: abundance fitness of entry RTSMTEEYRVPDGMVGLIIGRGGEQINKIQQDSGCKVQIVPDSGGLPERSVSLTGAPESVQKAKMMLDDIVSR
0.025

So what's the measured abundance fitness for this one? RTSMTEEYRVPDGMVGLIIGRGGEQINKIQQDSGCKVQISPDSGGLPERSVSLTGAPEKVQKAKMMLDDIVSR
-0.216

Endpoint output: abundance fitness of RTSMTEEYRVPDGMVGLIIGRGGEQITKIQQDSGCKVQISPDSGGLPERSVSLTGAPESVQKAKMMLDDIVSR . Value?
0.007

Name the recorded abundance fitness for RTSMTEEYRVPDGMVGLIIGRGGEQINKIQQDSGCKVQISPDSGGLPERSVSLTGAPESVQKAKMMLDDIVSC .
0.108

Fill blank: measured abundance fitness of the variant RTSMTEEYRVPDGMVGLIIGRGGEQINKIQQDSGRKVQISPDSGGLPERSVSLTGAPESVQKAKMMLDDIVSR is ____.
-0.848

Find the recorded abundance fitness belonging to RTSMTEEYRVPDGMVGLIIGRGGEQINKIQQDSGCKVQISPDSGGAPERSVSLTGAPESVQKAKMMLDDIVSR and report it.
-0.056

# get_value(readout='abundance fitness', item= RTSMTEEYRVPDGMVGLIIGRGGEQINKIQQDSGCKVQISPDSGGLPERSVSLTGAPESVQKAKMMFDDIVSR )
-0.41

Can you look up the measured abundance fitness of RTSMTEEYRVPDGMVGLIIGRGGEQINWIQQDSGCKVQISPDSGGLPERSVSLTGAPESVQKAKMMLDDIVSR for me?
-0.51

abundance fitness lookup needed for RTSMTEEYRVPDGMVGLIIGRGGEQINKIQQDSGCCVQISPDSGGLPERSVSLTGAPESVQKAKMMLDDIVSR , thanks.
-0.182

Consider the variant shown here: RTSMTEEYRVPDGMVGLIIGRGGEQINKIQQDWGCKVQISPDSGGLPERSVSLTGAPESVQKAKMMLDDIVSR What is its recorded abundance fitness?
-1.09

GET /values?readout=abundance fitness&item= RTSMTEEYRVPDGMVGLIIGRGGEQINKIEQDSGCKVQISPDSGGLPERSVSLTGAPESVQKAKMMLDDIVSR
-0.067
